Data origin, for the record: PubChem BioAssay (NCI)

Exercise: for every item that follows, state its recorded growth inhibition.
test: NCI Yeast Anticancer Drug Screen. Data for the mlh1 rad18 strain (AID 175); details: S. cerevisiae mlh1 rad18 strain growth inhibition; at 50.0 µM; active compounds read high
The panel holds about 79,000 compounds, 15% with a hit somewhere; the sample as a whole holds those more often. Active and inactive are the calls of the source. No stated cut-off is given here; in the data, active means growth inhibition above about 70%; inactive means the rest.

Need growth inhibition for each of these compounds.
1. O=C(Cc1ccccc1)OCC(=O)c1ccc(-c2ccccc2)cc1
2. CCc1nc(=S)c2cnn(-c3ccccc3)c2[nH]1
3. N#CC(NNC(=O)Cc1ccccc1)c1c(O)ccc2ccccc12 (stereo not given)
4. CC(C)(C)C(=O)C(=O)O
5. O=C1c2ccccc2C(=O)N1CCc1ccccc1
6. CCOC(=O)C(C#N)(CCC#N)CCC#N
7. COc1ccc(N2C(=O)C3c4[nH]c5ccc(F)cc5c4C4CCC(C(C)(C)C)CC4C3C2=O)cc1 (stereo not given)
8. COc1ccc(N)c(C(O)CCNC(C)=O)c1 (stereo not given)

OUTPUT:
-5.15% (inactive)
23.6% (inactive)
-7.25% (inactive)
14.6% (inactive)
14.1% (inactive)
12.6% (inactive)
22.1% (inactive)
-38.8% (inactive)
